Listing: T/C of selected compounds
# Test system: L1210 leukemia ip in BDF1 mice, survival T/C
# Assay remarks: NCI In Vivo Anticancer Drug Screen. Data for tumor model L1210 Leukemia (intraperitoneal) in B6D2F1 (BDF1) mice
# Condition context: endpoint: mean survival time; dose: 200.0 mg/kg/injection; schedule: Q01DX009 (ip); vehicle: Klucel (hydroxypropylcellulose) (HPC); higher = longer survival
Inconclusive results and toxic doses are left out.

Some entries whose results are on file:
# returns recorded T/C (system: L1210 leukemia ip in BDF1 mice, survival T/C) for `Cc1ccc(/C([O-])=C(\C(=S)Nc2cccc(Cl)c2)[n+]2ccccc2)cc1` 95 % of control

Record `O=[N+]([O-])c1cc([N+](=O)[O-])c(NN(c2ccccc2)c2cccc3ccccc23)c([N+](=O)[O-])c1` : what is its T/C with L1210 leukemia ip in BDF1 mice, survival T/C? 102 % of control

---
Any idea what T/C came out for `Cc1cc(S(=O)(=O)F)ccc1O` on L1210 leukemia ip in BDF1 mice, survival T/C? 103 % of control

Return T/C measured with L1210 leukemia ip in BDF1 mice, survival T/C given this compound: `COc1cc([N+](=O)[O-])c2ncccc2c1` 104 % of control

Give L1210 leukemia ip in BDF1 mice, survival T/C T/C for `C(=N\Nc1nc2ccccc2s1)/c1ccncc1` 96 % of control

Give T/C (L1210 leukemia ip in BDF1 mice, survival T/C) of the following compound: `CCCNC(=O)OC/C=C\CC(Cl)(Cl)Cl` 94 % of control

Request: T/C, test system L1210 leukemia ip in BDF1 mice, survival T/C, entry `COc1ccc([N+](=O)[O-])cc1NC(=O)Nc1ccc(CCO)cc1` 97 % of control

Form entry - test system: L1210 leukemia ip in BDF1 mice, survival T/C; read-out: T/C; compound: `C/C(=N\O)C(=O)c1ccccc1` 100 % of control

So what T/C did `COc1ccc(/C=C(\NC(C)=O)C(=O)O)cc1` get with L1210 leukemia ip in BDF1 mice, survival T/C? 97 % of control

Short answer please: T/C, L1210 leukemia ip in BDF1 mice, survival T/C, entry `c1ccc(-c2nnc(-c3ccccc3)o2)cc1` 94 % of control

Write down the reported T/C of CC(=O)CCCC(C)C1CCC2[C@H]3CC=C4C[C@H](O)CC[C@@]4(C)C3CC[C@@]12C (stereo not given in full) , test system: L1210 leukemia ip in BDF1 mice, survival T/C. 102 % of control

Give recorded T/C with L1210 leukemia ip in BDF1 mice, survival T/C for the following compound: `CN(C)CCCNC(=O)Nc1ccccc1` 98 % of control

Recall the recorded T/C for `COC(=O)CC(=O)c1ccc(C)cc1` with L1210 leukemia ip in BDF1 mice, survival T/C and state it. 95 % of control

Request - read-out T/C | tested on L1210 leukemia ip in BDF1 mice, survival T/C | compound `N#Cc1ccccc1.N#Cc1ccccc1.[Cl][Pd][Cl]` 101 % of control

Find T/C (L1210 leukemia ip in BDF1 mice, survival T/C) for the entry `Cc1ccc(/C(=C\c2ccccc2)C(=O)c2ccccc2)cc1` 92 % of control

Form field: T/C recorded for `O=C(Nc1ccc(Cl)cc1)c1ccccc1` with L1210 leukemia ip in BDF1 mice, survival T/C (enter value) 93 % of control

// lookup T/C | system=L1210 leukemia ip in BDF1 mice, survival T/C | key= `Cc1c([N+](=O)[O-])c(C)c([N+](=O)[O-])c(C(C)(C)C)c1[N+](=O)[O-]` 94 % of control

// map `Cc1ccc(S(=O)(=O)Oc2ccc([N+](=O)[O-])cc2)cc1` to recorded T/C (system: L1210 leukemia ip in BDF1 mice, survival T/C) 97 % of control

Requested read-out T/C, target or system L1210 leukemia ip in BDF1 mice, survival T/C, entry `C(=N\Nc1nc2ccccc2s1)/c1ccc2ccccc2n1` 96 % of control

Return T/C measured with L1210 leukemia ip in BDF1 mice, survival T/C given this compound: CCCCC(CC)C(O)C1CCCCC1O (stereo not given) 96 % of control

Form: Entry = `OCCCNc1nc2c(Cl)cc(Cl)cc2c2ccccc12` | System = L1210 leukemia ip in BDF1 mice, survival T/C | T/C = ____ 94 % of control

For the record `CCOC(=O)c1cnc(SC)nc1Oc1ccccc1F` , what value of T/C is listed for L1210 leukemia ip in BDF1 mice, survival T/C? 96 % of control

Hi! What's the reported T/C for `CCc1cc(C)cc(OC(=O)Nc2cc(Cl)ccc2C)c1` on L1210 leukemia ip in BDF1 mice, survival T/C? 90 % of control

Fill in the recorded T/C for this compound, with L1210 leukemia ip in BDF1 mice, survival T/C as test system: `CCCCCCCCC(=O)Nc1nc2nc[nH]c2c(=O)[nH]1` 90 % of control

Query the reported T/C for L1210 leukemia ip in BDF1 mice, survival T/C; item: `O=[N+]([O-])c1ccc(Oc2ccc[n+]([O-])c2)nc1` 101 % of control
